B1: SMG5 (parent)
chain: FVSIAQSEQESLLQQAQAQFRMAQ

variants of: B1; assay: protein stability index of a GFP-peptide fusion (GPS, HEK-293T) (PSI 1-6); higher = more stable; settings: c terminus: a fixed tail appended;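 note: lentivirally expressed fusions sorted by FACS into six bins by GFP to DsRed ratio, PSI derived from sequencing read proportions per bin multiplied by bin number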
# protein stability index values compiled below
measure: protein stability index

{"columns": ["variant-key", "measure", "assay-value"],
 "data": [
  ["S7Y", "protein stability index", 1.57],
  ["R21N", "protein stability index", 1.94],
  ["A18T", "protein stability index", 2.3],
  ["A23D", "protein stability index", 2.21],
  ["E8A", "protein stability index", 2.2],
  ["L13S", "protein stability index", 2.74],
  ["M22R", "protein stability index", 2.7],
  ["V2A", "protein stability index", 3.24],
  ["S3M", "protein stability index", 1.6],
  ["I4Y", "protein stability index", 2.12],
  ["E10C", "protein stability index", 2.07],
  ["I4E", "protein stability index", 2.91],
  ["Q6R", "protein stability index", 2.33],
  ["Q15A", "protein stability index", 1.44],
  ["I4T", "protein stability index", 2.78],
  ["Q19P", "protein stability index", 1.81],
  ["I4G", "protein stability index", 2.42],
  ["Q19I", "protein stability index", 2.33],
  ["S11M", "protein stability index", 1.97],
  ["Q9N", "protein stability index", 2.08],
  ["E10K", "protein stability index", 1.87],
  ["F20E", "protein stability index", 3.12],
  ["S7I", "protein stability index", 2.56],
  ["Q14H", "protein stability index", 2.4],
  ["E10Q", "protein stability index", 2.54],
  ["A23Y", "protein stability index", 2.16],
  ["A18F", "protein stability index", 1.74],
  ["Q6H", "protein stability index", 1.92],
  ["E10R", "protein stability index", 2.2],
  ["L13V", "protein stability index", 2.68],
  ["R21Q", "protein stability index", 2.6],
  ["L12A", "protein stability index", 2.69],
  ["Q19S", "protein stability index", 1.81],
  ["E8I", "protein stability index", 1.9],
  ["Q17I", "protein stability index", 2.02],
  ["M22W", "protein stability index", 2.4],
  ["L13C", "protein stability index", 2.88],
  ["M22A", "protein stability index", 2.43],
  ["S7D", "protein stability index", 2.33],
  ["R21W", "protein stability index", 3.6],
  ["Q24H", "protein stability index", 1.92],
  ["L12G", "protein stability index", 2.12],
  ["Q6G", "protein stability index", 1.85],
  ["E8F", "protein stability index", 3.04],
  ["E10I", "protein stability index", 1.73],
  ["F1M", "protein stability index", 2.97],
  ["Q6I", "protein stability index", 2.02],
  ["Q9C", "protein stability index", 3.07],
  ["R21A", "protein stability index", 2.27],
  ["A23N", "protein stability index", 2.12],
  ["S11C", "protein stability index", 2.56],
  ["F20V", "protein stability index", 2.37],
  ["Q15Y", "protein stability index", 2.17],
  ["A16D", "protein stability index", 2.44],
  ["S11L", "protein stability index", 1.99],
  ["S11H", "protein stability index", 2.04],
  ["Q9V", "protein stability index", 1.91],
  ["Q19D", "protein stability index", 2.27],
  ["A5R", "protein stability index", 2.57],
  ["E8V", "protein stability index", 1.39],
  ["M22D", "protein stability index", 2.68],
  ["S11E", "protein stability index", 2.56],
  ["L12R", "protein stability index", 2.4],
  ["L12H", "protein stability index", 2.72],
  ["S3W", "protein stability index", 2.89],
  ["F20Y", "protein stability index", 2.49],
  ["A18I", "protein stability index", 2.54],
  ["M22Q", "protein stability index", 2.05],
  ["A18V", "protein stability index", 1.52],
  ["A23W", "protein stability index", 2.58],
  ["F1N", "protein stability index", 3.93],
  ["I4Q", "protein stability index", 3.01],
  ["A16E", "protein stability index", 2.43]
]}
